Molecular target: mannose receptor (MR) on CHO-MR cells (Mus musculus, UniProt Q61830)
Construct: expressed in transfected cells; host or cells: CHO (CHO-MR overexpression line, gift of Luisa Martinez-Pomares)
Sequence (Q61830 20-1456): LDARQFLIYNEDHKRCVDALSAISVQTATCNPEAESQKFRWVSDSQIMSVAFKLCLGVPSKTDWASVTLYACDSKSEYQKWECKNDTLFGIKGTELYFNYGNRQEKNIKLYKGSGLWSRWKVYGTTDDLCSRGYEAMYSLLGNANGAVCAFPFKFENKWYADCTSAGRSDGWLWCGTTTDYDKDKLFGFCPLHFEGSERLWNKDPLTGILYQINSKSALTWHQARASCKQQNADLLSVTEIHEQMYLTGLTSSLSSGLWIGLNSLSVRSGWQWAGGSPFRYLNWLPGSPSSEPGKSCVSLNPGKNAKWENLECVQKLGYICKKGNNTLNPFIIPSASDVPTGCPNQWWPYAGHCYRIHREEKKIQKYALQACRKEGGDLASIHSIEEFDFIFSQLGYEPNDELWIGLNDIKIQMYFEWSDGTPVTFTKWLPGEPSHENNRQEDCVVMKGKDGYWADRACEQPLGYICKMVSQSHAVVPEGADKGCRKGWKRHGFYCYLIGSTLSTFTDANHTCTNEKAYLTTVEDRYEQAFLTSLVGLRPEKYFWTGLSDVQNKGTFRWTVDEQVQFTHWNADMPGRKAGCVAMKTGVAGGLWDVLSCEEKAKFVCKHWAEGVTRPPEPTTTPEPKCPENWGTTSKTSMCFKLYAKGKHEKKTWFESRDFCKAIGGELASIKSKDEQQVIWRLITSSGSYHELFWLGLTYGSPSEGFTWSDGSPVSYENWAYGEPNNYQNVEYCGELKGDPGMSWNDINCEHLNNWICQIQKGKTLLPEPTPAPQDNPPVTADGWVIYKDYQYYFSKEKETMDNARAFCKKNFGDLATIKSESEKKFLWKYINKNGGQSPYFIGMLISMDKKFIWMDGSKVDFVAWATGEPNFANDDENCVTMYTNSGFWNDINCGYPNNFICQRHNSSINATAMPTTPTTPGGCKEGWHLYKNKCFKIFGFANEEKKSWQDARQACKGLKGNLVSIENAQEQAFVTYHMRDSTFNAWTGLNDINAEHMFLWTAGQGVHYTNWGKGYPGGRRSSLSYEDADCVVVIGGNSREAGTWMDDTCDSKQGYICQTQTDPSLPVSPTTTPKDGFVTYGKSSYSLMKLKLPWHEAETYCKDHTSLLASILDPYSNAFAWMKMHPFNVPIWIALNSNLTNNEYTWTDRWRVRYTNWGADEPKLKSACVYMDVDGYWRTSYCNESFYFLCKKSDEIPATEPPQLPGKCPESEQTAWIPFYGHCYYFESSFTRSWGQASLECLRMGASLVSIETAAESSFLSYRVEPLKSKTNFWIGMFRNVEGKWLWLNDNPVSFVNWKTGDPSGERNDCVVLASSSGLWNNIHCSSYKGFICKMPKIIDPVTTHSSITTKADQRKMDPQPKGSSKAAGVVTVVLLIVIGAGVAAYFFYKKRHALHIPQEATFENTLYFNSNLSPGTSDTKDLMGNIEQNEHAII
Test: Glyco-PAINT-APP single-molecule glycan binding on CHO-MR cells
Details: Suppl. Fig 9, glycan SLP, CHO-MR + CytD, median
sCy5 = sulfo-Cy5

{"substance": "Ac-Lys(Man)-TEG-Asp-Glu-Val-Ser-Gly-Leu-Glu-Gln-Leu-Glu-Ser-Ile-Ile-Asn-Phe-Glu-Lys-Leu-Ala-Ala-Ala-Ala-Ala-Lys(sCy5)-NH2 ({Ac-K(Man)-TEG}-DEVSGLEQLESIINFEKLAAAAAK(sCy5)-NH2) [1 Mono(1), monovalent monomannosylated OVA SLP with sulfo-Cy5]", "assay system": "mannose receptor (MR) on CHO-MR cells (Mus musculus, UniProt Q61830)", "units symbol": "ms", "koff−1": 63}
{"substance": "Ac-Lys(Man)-Lys(Man)-Lys(Man)-Lys(Man)-Lys(Man)-Lys(Man)-TEG-Asp-Glu-Val-Ser-Gly-Leu-Glu-Gln-Leu-Glu-Ser-Ile-Ile-Asn-Phe-Glu-Lys-Leu-Ala-Ala-Ala-Ala-Ala-Lys(sCy5)-NH2 ({Ac-K(Man)-K(Man)-K(Man)-K(Man)-K(Man)-K(Man)-TEG}-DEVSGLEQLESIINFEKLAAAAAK(sCy5)-NH2) [6 Mono(3), hexavalent monomannosylated OVA SLP with sulfo-Cy5]", "assay system": "mannose receptor (MR) on CHO-MR cells (Mus musculus, UniProt Q61830)", "units symbol": "ms", "koff−1": 115}
{"substance": "Ac-Lys(Man)-Gly-Lys(Man)-TEG-Asp-Glu-Val-Ser-Gly-Leu-Glu-Gln-Leu-Glu-Ser-Ile-Ile-Asn-Phe-Glu-Lys-Leu-Ala-Ala-Ala-Ala-Ala-Lys(sCy5)-NH2 ({Ac-K(Man)-Gly-K(Man)-TEG}-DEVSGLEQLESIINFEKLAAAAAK(sCy5)-NH2) [2 Mono(2), bivalent monomannosylated OVA SLP with sulfo-Cy5]", "assay system": "mannose receptor (MR) on CHO-MR cells (Mus musculus, UniProt Q61830)", "units symbol": "ms", "koff−1": 85}

----------
Documented kon across a set of substances
System: MR^−/− BMDC
Assay: Glyco-PAINT-APP single-molecule glycan binding on live MR-/- BMDC
Parameters: species or system mouse
Conditions: Suppl. Fig 9, glycan SLP, median
sCy5 = sulfo-Cy5
quantity measured: kon

{"substance": "Ac-Lys(triMan)-Gly-Lys(triMan)-TEG-Asp-Glu-Val-Ser-Gly-Leu-Glu-Gln-Leu-Glu-Ser-Ile-Ile-Asn-Phe-Glu-Lys-Leu-Ala-Ala-Ala-Ala-Ala-Lys(sCy5)-NH2 (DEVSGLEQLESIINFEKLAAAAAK; two Lys(triMan), TEG, sulfo-Cy5, C-amide; printed: Asp-Glu-Val-Ser-Gly-Leu-Glu-Gln-Leu-Glu-Ser-Ile-Ile-Asn-Phe-Glu-Lys-Leu-Ala-Ala-Ala-Ala-Ala-Lys) [2 Tri(5), bivalent trimannosylated OVA SLP with sulfo-Cy5]", "quantity measured": "kon", "value observed": "4.6 evts μm−2 sec−1"}
{"substance": "Ac-Lys(triMan)-TEG-Asp-Glu-Val-Ser-Gly-Leu-Glu-Gln-Leu-Glu-Ser-Ile-Ile-Asn-Phe-Glu-Lys-Leu-Ala-Ala-Ala-Ala-Ala-Lys(sCy5)-NH2 (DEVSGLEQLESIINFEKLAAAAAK; Ac-Lys(triMan)-TEG, sulfo-Cy5, C-amide; printed: Asp-Glu-Val-Ser-Gly-Leu-Glu-Gln-Leu-Glu-Ser-Ile-Ile-Asn-Phe-Glu-Lys-Leu-Ala-Ala-Ala-Ala-Ala-Lys) [1 Tri(4), monovalent trimannosylated OVA SLP with sulfo-Cy5]", "quantity measured": "kon", "value observed": "6 evts μm−2 sec−1"}
{"substance": "Ac-Lys(Man)-Gly-Lys(Man)-TEG-Asp-Glu-Val-Ser-Gly-Leu-Glu-Gln-Leu-Glu-Ser-Ile-Ile-Asn-Phe-Glu-Lys-Leu-Ala-Ala-Ala-Ala-Ala-Lys(sCy5)-NH2 ({Ac-K(Man)-Gly-K(Man)-TEG}-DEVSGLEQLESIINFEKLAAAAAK(sCy5)-NH2) [2 Mono(2), bivalent monomannosylated OVA SLP with sulfo-Cy5]", "quantity measured": "kon", "value observed": "2 evts μm−2 sec−1"}
{"substance": "Ac-Lys(Man)-TEG-Asp-Glu-Val-Ser-Gly-Leu-Glu-Gln-Leu-Glu-Ser-Ile-Ile-Asn-Phe-Glu-Lys-Leu-Ala-Ala-Ala-Ala-Ala-Lys(sCy5)-NH2 ({Ac-K(Man)-TEG}-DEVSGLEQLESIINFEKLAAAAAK(sCy5)-NH2) [1 Mono(1), monovalent monomannosylated OVA SLP with sulfo-Cy5]", "quantity measured": "kon", "value observed": "6.2 evts μm−2 sec−1"}
{"substance": "Ac-Lys(Man)-Lys(Man)-Lys(Man)-Lys(Man)-Lys(Man)-Lys(Man)-TEG-Asp-Glu-Val-Ser-Gly-Leu-Glu-Gln-Leu-Glu-Ser-Ile-Ile-Asn-Phe-Glu-Lys-Leu-Ala-Ala-Ala-Ala-Ala-Lys(sCy5)-NH2 ({Ac-K(Man)-K(Man)-K(Man)-K(Man)-K(Man)-K(Man)-TEG}-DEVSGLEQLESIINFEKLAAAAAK(sCy5)-NH2) [6 Mono(3), hexavalent monomannosylated OVA SLP with sulfo-Cy5]", "quantity measured": "kon", "value observed": "6.3 evts μm−2 sec−1"}

----------
Biological target: mannose receptor (MR) on CHO-MR cells (Mus musculus)
Construct: expressed in transfected cells; host or cells: CHO (CHO-MR overexpression line, gift of Luisa Martinez-Pomares)
Sequence (Q61830 20-1456): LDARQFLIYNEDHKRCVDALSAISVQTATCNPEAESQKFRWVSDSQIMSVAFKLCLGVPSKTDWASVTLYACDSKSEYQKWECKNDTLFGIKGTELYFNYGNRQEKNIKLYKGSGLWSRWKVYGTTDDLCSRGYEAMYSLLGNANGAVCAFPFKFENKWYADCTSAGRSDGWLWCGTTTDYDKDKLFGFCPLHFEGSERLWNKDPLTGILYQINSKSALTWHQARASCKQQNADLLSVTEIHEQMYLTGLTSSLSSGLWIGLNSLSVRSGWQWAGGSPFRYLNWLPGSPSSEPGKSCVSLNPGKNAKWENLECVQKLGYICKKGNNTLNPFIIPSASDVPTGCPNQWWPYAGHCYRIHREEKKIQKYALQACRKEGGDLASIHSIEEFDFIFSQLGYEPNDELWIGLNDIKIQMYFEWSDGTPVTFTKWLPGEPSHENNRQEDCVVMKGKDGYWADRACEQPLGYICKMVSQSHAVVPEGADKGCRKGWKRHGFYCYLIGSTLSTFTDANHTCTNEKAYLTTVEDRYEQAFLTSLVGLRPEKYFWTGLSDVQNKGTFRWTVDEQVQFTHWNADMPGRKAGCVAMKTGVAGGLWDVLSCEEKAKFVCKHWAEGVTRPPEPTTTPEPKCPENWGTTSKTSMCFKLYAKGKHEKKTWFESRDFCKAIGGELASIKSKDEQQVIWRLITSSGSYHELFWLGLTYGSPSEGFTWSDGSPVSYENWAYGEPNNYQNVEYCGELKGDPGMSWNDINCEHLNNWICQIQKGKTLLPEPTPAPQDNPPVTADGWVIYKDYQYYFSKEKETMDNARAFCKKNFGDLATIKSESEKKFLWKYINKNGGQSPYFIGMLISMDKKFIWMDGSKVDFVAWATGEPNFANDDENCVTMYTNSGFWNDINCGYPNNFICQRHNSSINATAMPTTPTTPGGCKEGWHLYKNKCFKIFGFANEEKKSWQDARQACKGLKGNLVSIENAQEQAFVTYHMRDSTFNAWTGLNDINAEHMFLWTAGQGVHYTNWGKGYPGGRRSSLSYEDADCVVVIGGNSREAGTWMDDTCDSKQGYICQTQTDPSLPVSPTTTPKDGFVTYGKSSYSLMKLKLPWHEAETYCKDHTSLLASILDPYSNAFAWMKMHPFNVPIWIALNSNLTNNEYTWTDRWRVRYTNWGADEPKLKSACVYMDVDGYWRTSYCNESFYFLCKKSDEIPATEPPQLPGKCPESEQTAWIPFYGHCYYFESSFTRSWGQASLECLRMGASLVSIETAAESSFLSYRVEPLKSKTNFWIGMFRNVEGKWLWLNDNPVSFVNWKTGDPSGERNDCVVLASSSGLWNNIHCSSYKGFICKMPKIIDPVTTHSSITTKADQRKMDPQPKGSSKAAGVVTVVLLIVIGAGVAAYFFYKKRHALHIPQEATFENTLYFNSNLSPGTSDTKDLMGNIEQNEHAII
Experiment: Glyco-PAINT-APP single-molecule glycan binding on CHO-MR cells
Settings: Suppl. Fig 9, glycan SLP, CHO-MR, median

{"substance": "Ac-Lys(triMan)-TEG-Asp-Glu-Val-Ser-Gly-Leu-Glu-Gln-Leu-Glu-Ser-Ile-Ile-Asn-Phe-Glu-Lys-Leu-Ala-Ala-Ala-Ala-Ala-Lys(sCy5)-NH2 (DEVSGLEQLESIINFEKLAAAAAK; Ac-Lys(triMan)-TEG, sulfo-Cy5, C-amide; printed: Asp-Glu-Val-Ser-Gly-Leu-Glu-Gln-Leu-Glu-Ser-Ile-Ile-Asn-Phe-Glu-Lys-Leu-Ala-Ala-Ala-Ala-Ala-Lys) [1 Tri(4), monovalent trimannosylated OVA SLP with sulfo-Cy5]", "koff−1 (ms)": 79}
